- Test system: HePG2 hepatocarcinoma cells
- Assay type: cell-based
- MEASUREMENT CONDITIONS: human, 24 h, 1 μM
Entries annotated with measured Cell viability
Respond numerically; units are % and should not be typed.

{"COMPOUND": "Cc1cn(-c2cc(NC(=O)c3ccc(C)c(Nc4nccc(-c5cccnc5)n4)c3)cc(C(F)(F)F)c2)cn1 [Nilotinib, reference compound]", "MEASUREMENT NAME": "Cell viability", "UNIT": "%", "NUMERIC RESULT": 100}
{"COMPOUND": "COc1cc(-c2cc(-c3ccc(N4CCNCC4)cc3)cnc2N(C)C)cc(OC)c1OC [Compound 25]", "MEASUREMENT NAME": "Cell viability", "UNIT": "%", "NUMERIC RESULT": 101}
{"COMPOUND": "COc1ccc(-c2cc(-c3ccc(N4CCNCC4)cc3)cnc2N)cc1 [Compound 20]", "MEASUREMENT NAME": "Cell viability", "UNIT": "%", "NUMERIC RESULT": 108}
{"COMPOUND": "COc1cc(-c2cnn3cc(-c4ccc(N5CCNCC5)cc4)cnc23)cc(OC)c1OC [Compound 32]", "MEASUREMENT NAME": "Cell viability", "UNIT": "%", "NUMERIC RESULT": 99}

*Q* API: value(readout=Cell viability, system=HePG2 hepatocarcinoma cells) for record Nc1ncc(-c2ccc(N3CCNCC3)cc2)cc1-c1cccc2ncccc12 [Compound 31]
*A* 105

*Q* API: value(readout=Cell viability, system=HePG2 hepatocarcinoma cells) for record COc1cc(-c2cc(-c3cccc(N4CCNCC4)c3)cnc2N)cc(OC)c1OC [Compound 14]
*A* 99

*Q* API: value(readout=Cell viability, system=HePG2 hepatocarcinoma cells) for record N#CC[C@H](C1CCCC1)n1cc(-c2ncnc3[nH]ccc23)cn1 [Ruxolitinib, reference compound]
*A* 100

*Q* API: value(readout=Cell viability, system=HePG2 hepatocarcinoma cells) for record CC(C)Oc1cccc(-c2cc(-c3ccc(N4CCNCC4)cc3)cnc2N)c1 [Compound 21]
*A* 98

* * *

Entries annotated with measured Cell viability
- Test system: HePG2 hepatocarcinoma cells
- Format: cell-based
- MEASUREMENT CONDITIONS: human, 24 h, 100 μM
Respond numerically; units are % and should not be typed.

Worked cases, Cell viability given:
{"TEST SMILES": "COc1cc(-c2cnc(N)c(-c3cc(OC)c(OC)c(OC)c3)c2)ccc1O", "Cell viability, %": 89}
{"TEST SMILES": "COc1cc(-c2cc(-c3ccc(N4CCNCC4)cc3)cnc2C)cc(OC)c1OC", "Cell viability, %": 77}

Could you now look at the following compound, please?
*Q* API: value(readout=Cell viability, system=HePG2 hepatocarcinoma cells) for record Nc1ncc(-c2cccc(N3CCNCC3)c2)cc1-c1ccnc2ccccc12
*A* 5

* * *

Entries annotated with measured ΔTmDiff.
- MEASUREMENT TARGET: ALK2 (Homo sapiens, UniProt Q04771, Q207D)
- Construct: His tag (TEV-cleavable) (N, cleaved yes); made in house; host or cells: Sf9 insect cells (baculovirus)
- Sequence (Q04771 201-499 Q207D): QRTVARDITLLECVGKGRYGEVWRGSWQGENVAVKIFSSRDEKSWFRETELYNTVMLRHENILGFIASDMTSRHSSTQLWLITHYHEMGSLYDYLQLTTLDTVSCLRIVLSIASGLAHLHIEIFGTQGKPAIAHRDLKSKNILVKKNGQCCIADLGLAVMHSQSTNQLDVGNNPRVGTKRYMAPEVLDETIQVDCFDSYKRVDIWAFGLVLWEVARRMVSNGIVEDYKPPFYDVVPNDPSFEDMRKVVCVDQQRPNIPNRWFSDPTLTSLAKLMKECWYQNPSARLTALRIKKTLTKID
- METHOD: Thermal shift kinase assay ALK2
- Type: binding
- MEASUREMENT CONDITIONS: ALK2 minus ALK5
Would you mind answering with just the numeric figure?

Worked cases, ΔTmDiff. given:
{"MOLECULE": "COc1cc(-c2cc(-c3ccc(N4CCNCC4)cc3)cnc2Cl)cc(OC)c1OC", "NUMERIC RESULT": 3.8}
{"MOLECULE": "COc1cc(-c2cc(-c3ccc(O)cc3)cnc2N)cc(OC)c1OC", "NUMERIC RESULT": 1.5}
{"MOLECULE": "COc1cc(OC)cc(-c2cc(-c3ccc(N4CCNCC4)cc3)cnc2N)c1", "NUMERIC RESULT": 3.5}

Could you now look at the following molecule, please?
*Q* Using the record for COc1cc(-c2cc(-c3cccc(O)c3)cnc2N)cc(OC)c1OC [Compound K02288, reference compound] , report its ΔTmDiff..
*A* 2.0
